- Tested on: ABUTH—Velvetleaf (Abutilon theophrasti)
- Assay Comment: General preemergence herbicidal activity, velvetleaf
- Type: in vivo
- Experimental Parameters: pre-emergent, rate 140 g ai/ha, visual score after 20-22 days (0 no injury, 100 complete kill or no emergence), read-out: % Growth Inhibition ABUTH
Readout Kind: inhibition at 140 g/ha (%)
Numeric only. Scale: %

Look at this molecule and give its reported inhibition at 140 g/ha. Cc1ccc(-c2nc(N)c(Cl)c(C(=O)O)n2)c(F)c1F
100

// query: Nc1nc(-c2ccc(C(F)(F)F)cc2F)nc(C(=O)O)c1Cl
10

Also, Cc1ccc(-c2nc(N)c(Cl)c(C(=O)O)n2)c(F)c1 please.
95

* * *

- Test system: ECHCG—Barnyardgrass (Echinochloa crus-galli)
- Assay Comment: General postemergence herbicidal activity, barnyardgrass
- Assay type: in vivo
- Experimental Parameters: post-emergence, 336 h, post-emergent, rate 140 g ai/ha, visual score after 14 days (0 no injury, 100 complete kill), read-out: % Growth Reduction ECHCG
Label true when pest or weed control at 140 g/ha is at or above 90%; anything below gets false.

Recorded results for 3 molecules are shown here.
COC(=O)c1nc(-c2ccc(Cl)c(F)c2F)nc(N)c1Cl : true
COC(=O)c1nc(-c2ccc(C(F)(F)F)cc2F)nc(N)c1Cl : false
COC(=O)c1nc(-c2cc(F)c(Cl)cc2F)nc(N)c1Cl : true

Dear colleague, could you confirm whether Nc1nc(-c2ccc(C(F)(F)F)cc2F)nc(C(=O)O)c1Cl has pest or weed control at 140 g/ha at or above 90%?
false

* * *

In this section we review reported pest or weed control at 140 g/ha values for a set of compounds.
- Test system: CIRAR—Canada thistle (Cirsium arvense)
- Assay Comment: General postemergence herbicidal activity, Canada thistle
- Format: in vivo
- Experimental Parameters: post-emergence, 336 h, post-emergent, rate 140 g ai/ha, visual score after 14 days (0 no injury, 100 complete kill), read-out: % Growth Reduction CIRAR
Form entry: enter the amount, then its unit.

In the examples that follow, each entry is paired with its recorded pest or weed control at 140 g/ha.
COC(=O)c1nc(-c2ccc(Cl)c(F)c2F)nc(N)c1Cl : 100%
COC(=O)c1nc(-c2cc(Cl)c(Cl)cc2F)nc(N)c1Cl : 95%
Nc1nc(-c2cc(Cl)c(Cl)cc2F)nc(C(=O)O)c1Cl : 90%

Requested field: pest or weed control at 140 g/ha. Item: COC(=O)c1nc(-c2ccc(C(F)(F)F)c(F)c2F)nc(N)c1Cl
80%

Repeat with COC(=O)c1nc(-c2ccc(C(F)(F)F)cc2F)nc(N)c1Cl
85%

Again, but for Cc1cc(F)c(-c2nc(N)c(Cl)c(C(=O)O)n2)cc1F
100%

What do we get for Nc1nc(-c2ccc(Cl)cc2F)nc(C(=O)O)c1Cl ?
100%

Same thing, different compound: COC(=O)c1nc(-c2ccc(C(F)F)cc2F)nc(N)c1Cl
40%

* * *

Listed here: items and their measured pest or weed control at 140 g/ha.
- System: ECHCG—Barnyardgrass (Echinochloa crus-galli)
- Assay Comment: General postemergence herbicidal activity, barnyardgrass
- Format: in vivo
- Experimental Parameters: post-emergence, 336 h, post-emergent, rate 140 g ai/ha, visual score after 14 days (0 no injury, 100 complete kill), read-out: % Growth Reduction ECHCG
# unit: % | format: bare number

For the compound Nc1nc(-c2ccc(Cl)c(F)c2F)nc(C(=O)O)c1Cl , what pest or weed control at 140 g/ha is on record?
90

What about this compound? COC(=O)c1nc(-c2cc(F)c(C)cc2F)nc(N)c1Cl
0

Next up: COC(=O)c1nc(-c2ccc(C(F)F)cc2F)nc(N)c1Cl
0

Field entry: CCOC(=O)c1nc(-c2ccc(Cl)cc2F)nc(N)c1Cl
80

Similarly, Cc1cc(F)c(-c2nc(N)c(Cl)c(C(=O)O)n2)cc1F ?
75

* * *

- Test system: HELAN—Common sunflower (Helianthus annuus)
- Assay Comment: General preemergence herbicidal activity, common sunflower
- Assay type: in vivo
- Experimental Parameters: pre-emergent, rate 140 g ai/ha, visual score after 20-22 days (0 no injury, 100 complete kill or no emergence), read-out: % Growth Inhibition HELAN
Readout Kind: inhibition at 140 g/ha
State the value with its unit after it.

Nc1nc(-c2ccc(C(F)(F)F)cc2F)nc(C(=O)O)c1Cl : 10%
Nc1nc(-c2ccc(Cl)cc2F)nc(C(=O)O)c1Cl : 95%
Nc1nc(-c2ccc(C(F)(F)F)c(F)c2F)nc(C(=O)O)c1Cl : 65%
Cc1ccc(-c2nc(N)c(Cl)c(C(=O)O)n2)c(F)c1F : 60%

Now for another entry.
What value of measured inhibition at 140 g/ha is listed for Nc1nc(-c2ccc(Cl)c(F)c2F)nc(C(=O)O)c1Cl ?
100%

* * *

- System: ABUTH—Velvetleaf (Abutilon theophrasti)
- Assay Comment: General preemergence herbicidal activity, velvetleaf
- Format: in vivo
- Experimental Parameters: pre-emergent, rate 140 g ai/ha, visual score after 20-22 days (0 no injury, 100 complete kill or no emergence), read-out: % Growth Inhibition ABUTH
Readout Kind: inhibition at 140 g/ha (%)
Lab book: enter the figure in %, no units written.

Nc1nc(-c2ccc(Cl)cc2F)nc(C(=O)O)c1Cl : 90
Nc1nc(-c2ccc(Cl)c(F)c2F)nc(C(=O)O)c1Cl : 100

Next item in the queue.
Query (molecule): Nc1nc(-c2ccc(C(F)(F)F)c(F)c2F)nc(C(=O)O)c1Cl ; field requested: inhibition at 140 g/ha
60

* * *

Recorded pest or weed control at 140 g/ha, one value per entry.
- Tested on: ECHCG—Barnyardgrass (Echinochloa crus-galli)
- Assay Comment: General postemergence herbicidal activity, barnyardgrass
- Assay type: in vivo
- Experimental Parameters: post-emergence, 336 h, post-emergent, rate 140 g ai/ha, visual score after 14 days (0 no injury, 100 complete kill), read-out: % Growth Reduction ECHCG
The answer is to be given in %; state only the numeric part.

Solved entries:
COC(=O)c1nc(-c2ccc(Cl)cc2F)nc(N)c1Cl [Compound 1] : 90
Nc1nc(-c2ccc(Cl)cc2F)nc(C(=O)O)c1Cl [Compound 11] : 85
COC(=O)c1nc(-c2ccc(C)c(F)c2F)nc(N)c1Cl [Compound 4] : 90
Nc1nc(-c2ccc(C(F)(F)F)c(F)c2F)nc(C(=O)O)c1Cl [Compound 16] : 90
Cc1ccc(-c2nc(N)c(Cl)c(C(=O)O)n2)c(F)c1F [Compound 14] : 95

Which pest or weed control at 140 g/ha reading was recorded for the molecule COC(=O)c1nc(-c2ccc(C(F)(F)F)c(F)c2F)nc(N)c1Cl [Compound 6] ?
25

* * *

- Test system: CIRAR—Canada thistle (Cirsium arvense)
- Assay Comment: General postemergence herbicidal activity, Canada thistle
- Assay type: in vivo
- Experimental Parameters: post-emergence, 336 h, post-emergent, rate 140 g ai/ha, visual score after 14 days (0 no injury, 100 complete kill), read-out: % Growth Reduction CIRAR
Readout Kind: pest or weed control at 140 g/ha
Just the number plus its unit, please.

See these solved cases before continuing.
COC(=O)c1nc(-c2cc(F)c(Cl)cc2F)nc(N)c1Cl : 95%
COC(=O)c1nc(-c2cc(F)c(C)cc2F)nc(N)c1Cl : 45%
Cc1ccc(-c2nc(N)c(Cl)c(C(=O)O)n2)c(F)c1F : 85%
Nc1nc(-c2ccc(C(F)(F)F)cc2F)nc(C(=O)O)c1Cl : 80%
COC(=O)c1nc(-c2ccc(Cl)cc2F)nc(N)c1Cl : 100%

Given the entry Nc1nc(-c2ccc(Cl)c(F)c2F)nc(C(=O)O)c1Cl , report its measured pest or weed control at 140 g/ha.
90%

Would you kindly repeat that for COC(=O)c1nc(-c2ccc(C)c(F)c2F)nc(N)c1Cl ?
60%

Please give the result for CCOC(=O)c1nc(-c2ccc(Cl)cc2F)nc(N)c1Cl too.
95%

Then what about the compound Nc1nc(-c2ccc(C(F)(F)F)c(F)c2F)nc(C(=O)O)c1Cl ?
90%
